Tested on: T-47D breast
TEST_METHOD_NOTES: NCI tumour cell line growth inhibition, 48 h
Would you mind telling me the reported TGI of each entry?

Ask: GET /values?readout=TGI&item= Cc1ccc2c(c1)CC1(Cc3ccccc3C1=O)C2=O (centres undefined)
Result: > 100 µM

Ask: Look up TGI: CCOC(C)O[C@H]1C(=O)OCC1(C)C (some centres undefined)
Result: > 100 µM

Ask: GET /values?readout=TGI&item= CC1=C(/C=C/Cl)CC(Cl)C(C)(Cl)C1 (centres undefined)
Result: > 100 µM

Ask: Need TGI, item `CCc1cc(Cc2cc(CC)c(NC(=O)C(=O)CC(=O)c3sc(-c4cccnc4)nc3C)c(CC)c2)cc(CC)c1NC(=O)C(=O)CC(=O)c1sc(-c2cccnc2)nc1C`
Result: > 100 µM

Ask: For the molecule CC12OC(C(=O)C13CC3)C1C(=O)c3ccc4c(ccc5ccccc54)c3C(=O)C12 (centres undefined) , what TGI is on record?
Result: 98.9 µM

Ask: Which TGI value is on record for `COc1ccc(-c2nc3ccccn3c2/C=C/C(=O)c2cc(OC)c(OC)c(OC)c2)cc1OC` ?
Result: > 100 µM

Ask: Entry CC1S/C(=N\N=C2/C(=O)Nc3ccc(Br)cc32)N(C2CCCCC2)C1=O (centres undefined) has what TGI?
Result: 19.6 µM

Ask: Requested field: TGI. Item: COc1cc2cc3c4cc(OC)c(OC)cc4cc[n+]3c(C)c2cc1OC (tested in a mixture with another compound)
Result: > 100 µM

Ask: Reported TGI for `CC(C)OC(=O)/C=C/C(=O)O/C=C/[N+](=O)[O-]` : what is it?
Result: 46.4 µM

----------
I'd be grateful if you could share measured TGI for these entries.
Tested on: HCC-2998 colon
TEST_METHOD_NOTES: NCI tumour cell line growth inhibition, 48 h

Ask: Could you share which TGI value was measured for `O=C(O)CNS(=O)(=O)c1ccc(NC(=O)c2ccc([N+](=O)[O-])cc2)cc1` ?
Result: > 100 µM

Ask: So what does the record say about TGI for `C=C(C)[C@H]1Cc2c(ccc3c2O[C@@H]2COc4cc(OC)c(OC)cc4[C@@H]2C3=O)O1` ?
Result: 8.12 µM

Ask: What value of TGI has been reported for the following molecule? CCOC(=O)c1ccc(N[C@@H]2c3cc4c(cc3C(c3cc(OC)c(O)c(OC)c3)[C@H]3C(=O)OCC32)OCO4)cc1O (stereo partly specified)
Result: 3.97 µM

Ask: Which value of TGI has been reported for `CO/C=C(/C(=O)OC)c1ccccc1COc1cccc(C(F)(F)F)c1` in the records?
Result: > 100 µM

Ask: Need TGI of `CCOC(=O)c1cc2c3ccn(Cc4ccccc4)c3c3c(C)[nH]oc3c2n1` , thanks.
Result: > 100 µM

Ask: What measured TGI goes with `Cc1cc2ncnn2cc1Nc1ncc2c(n1)n(C1CCOCC1)c(=O)n2C` ?
Result: > 100 µM

Ask: TGI lookup needed for `CC1(C)/C(=C/N=O)N(O)C(C)(C)N1O` , thanks.
Result: > 100 µM

Ask: Suppose we examine the molecule CCOc1ncn(-c2ccc(NC(=S)NC3OC(CO)C(O)C(O)C3O)cc2)n1 (stereo unspecified) ; what TGI value has been reported?
Result: > 100 µM

Ask: Name the reported TGI value associated with the molecule CC1(C)OC(=O)N(c2ccccc2)C12C=Cc1cc([N+](=O)[O-])ccc1O2 (stereo unspecified)
Result: > 100 µM

Ask: Please look up its TGI: `CCO/C=N\C1=C(C#N)SC2=N/C(=C\c3ccc(OC)cc3)C(=O)N21`
Result: > 100 µM

Ask: GET /values?readout=TGI&item= `CC/C=C\C[C@H](O)C/C=C1/C(=O)C=C[C@@H]1C/C=C\CCCC(=O)OC`
Result: 3.68 µM

----------
System: T-47D breast
TEST_METHOD_NOTES: NCI tumour cell line growth inhibition, 48 h
# binarize TGI: threshold 30 µM inclusive, high side true (1), low side false (0)

Ask: In plain terms: is recorded TGI at least 30 µM for `O=[N+]([O-])c1ccc(S(=O)(=O)n2c3ccc(Br)cc3c3nc4ccccc4nc32)cc1` ?
Result: true (1)

Ask: Given the entry `CC(=O)[C@@H](C)C(=O)N1C(=O)OC[C@@]12[C@@H]1CC[C@@H](C1)C2(C)C` , answer whether its TGI meets or surpasses 30 µM.
Result: true (1)

Ask: Reported TGI at or above 30 µM? `COC(=O)c1cc2c(cc1Cl)Sc1nnc(Nc3ccc(C)cc3)n1S2(=O)=O`
Result: false (0)

Ask: For this compound, is measured TGI 30 µM or higher? COc1ccc(C2=C(Cl)c3cc(OC)c(OC)cc3C2Cl)cc1 (stereo not given)
Result: true (1)

Ask: Can `COc1cc(OC)c(C(=O)/C=C/c2cccc(C(F)(F)F)c2)c(OC)c1` be said to have TGI at or above 30 µM?
Result: false (0)

Ask: Tell me whether TGI is at least 30 µM here: `CN(C(=O)Cc1cccc(N=C=S)c1)[C@H]1CCCC[C@@H]1N1CCCC1`
Result: false (0)

Ask: I'd appreciate it if you could say whether CC1(C)OC(=O)N(c2ccccc2)C12C=Cc1cc([N+](=O)[O-])ccc1O2 (stereo not given) has TGI at least equal to 30 µM.
Result: true (1)

Ask: Check the entry `S=c1ssc(N2CCOCC2)c1Cl` : does TGI equal or exceed 30 µM?
Result: true (1)

Ask: # bool: TGI of `CC1(C)C(=O)/C(=C\c2cccnc2)C[C@]2(C)[C@H]3CC[C@@H]4[C@H]5[C@H](C(=O)/C=C/c6cccnc6)CC[C@]5(C(=O)O)CC[C@@]4(C)[C@]3(C)CC[C@@H]12` >= 30 µM
Result: false (0)

Ask: Quick check: does `C=C(C)[C@@H]1CC[C@]2(CO)CC[C@]3(C)[C@H](CC[C@@H]4[C@@]5(C)C=C(C#N)C(=O)C(C)(C)[C@@H]5CC[C@]43C)[C@@H]12` have TGI greater than or equal to 30 µM?
Result: false (0)

Ask: Could you verify whether the entry `COc1cc2c3c(n(CCCN)c(=O)c2cc1OC)-c1ccc(C#N)cc1C3=O` shows TGI of no less than 30 µM?
Result: true (1)

Ask: TGI >= 30 µM for `COc1ccc(-c2cc(-c3cc(C)cc(Br)c3O)no2)cc1` ?
Result: true (1)

Ask: Kindly determine if TGI recorded for CCOc1ncn(-c2ccc(NC(=S)NC3OC(CO)C(O)C(O)C3O)cc2)n1 (stereo not given) is above or exactly 30 µM.
Result: true (1)

Ask: Determine whether measured TGI meets or exceeds 30 µM for `COc1cc(Cc2nccc3cc(OC)c(OC)cc23)c(C(C)=O)cc1OC`
Result: false (0)

Ask: Please indicate if the recorded TGI for CC(=O)OC1C(Oc2c(C)cc3c(c2O)[C@@H](C)CC[C@@H]3[C@@H](C)CCC=C(C)C)OCC(O)C1O (stereo not given in full) meets or exceeds 30 µM.
Result: true (1)

Ask: Decide: TGI of COc1c2c(cc3c1OCO3)[C@]13C=C[C@H](OC)C[C@H]1N(C2)CC3O (stereo not given in full) >= 30 µM?
Result: true (1)

Ask: Is it the case that OCC1OC(n2cnc3c2NC=NC[C@H]3O)C(Cl)C1O (stereo not given in full) has TGI reaching or exceeding 30 µM?
Result: true (1)

----------
Tested on: UO-31 renal
TEST_METHOD_NOTES: NCI tumour cell line growth inhibition, 48 h
Kindly state TGI for each of the entries shown.

Ask: Please look up its TGI: `C=C1C(=O)O[C@H]2[C@H]1CC/C(COC(=O)NCCCCNC(=O)OC/C1=C/CC[C@@]3(C)O[C@H]3[C@H]3OC(=O)C(=C)[C@@H]3CC1)=C\CC[C@@]1(C)O[C@@H]21`
Result: 20.9 µM

Ask: Requested read-out: TGI. Entry: `C=C(C)[C@H]1Cc2c(ccc3c2O[C@@H]2COc4cc(OC)c(OC)cc4[C@@H]2C3=O)O1`
Result: 58.8 µM

Ask: Given the entry `COc1ccc(C[N+](C)(C)N)cc1OC` , report its measured TGI.
Result: > 100 µM

Ask: Give its TGI value. Item: `Cc1cc(C)c(NC(=O)c2sc3nc4c(cc3c2N)C(=O)CCC4)c(C)c1`
Result: > 100 µM

Ask: Using the record for `CCOC(=O)CNC(=O)N(CC)C12CC3CC(CC(C3)C1)C2` , report its TGI.
Result: 358 µM

Ask: Value lookup for TGI; key = `CC(=O)O[C@H]1C(=O)[C@@]2(C)[C@H]([C@H](OC(=O)c3ccoc3)[C@]3(O)C[C@H](OC(=O)[C@H](O)[C@@H](NC(=O)c4ccccc4)c4ccccc4)C(C)=C1C3(C)C)[C@]1(OC(C)=O)CO[C@@H]1C[C@@H]2O`
Result: > 12.5 µM

Ask: Recorded TGI of CC12OC(C(=O)C13CC3)C1C(=O)c3ccc4c(ccc5ccccc54)c3C(=O)C12 (stereo not drawn) , please.
Result: > 100 µM

Ask: For Cc1nnc(NS(=O)(=O)c2ccc(N=Nc3cc(N=Nc4ccc(S(=O)(=O)Nc5nnc(C)s5)cc4)c4c(NC(=O)C(Cl)Cl)cccc4c3OC(=O)C(Cl)Cl)cc2)s1 (tested in a mixture with another compound) , what is its reported TGI?
Result: > 100 µM
